# target_under_test: Muscarinic acetylcholine receptor M2 (Homo sapiens); also: in other assays of this panel Not Active means under 50% inhibition at 10 µM
# Sequence (P08172 whole entry): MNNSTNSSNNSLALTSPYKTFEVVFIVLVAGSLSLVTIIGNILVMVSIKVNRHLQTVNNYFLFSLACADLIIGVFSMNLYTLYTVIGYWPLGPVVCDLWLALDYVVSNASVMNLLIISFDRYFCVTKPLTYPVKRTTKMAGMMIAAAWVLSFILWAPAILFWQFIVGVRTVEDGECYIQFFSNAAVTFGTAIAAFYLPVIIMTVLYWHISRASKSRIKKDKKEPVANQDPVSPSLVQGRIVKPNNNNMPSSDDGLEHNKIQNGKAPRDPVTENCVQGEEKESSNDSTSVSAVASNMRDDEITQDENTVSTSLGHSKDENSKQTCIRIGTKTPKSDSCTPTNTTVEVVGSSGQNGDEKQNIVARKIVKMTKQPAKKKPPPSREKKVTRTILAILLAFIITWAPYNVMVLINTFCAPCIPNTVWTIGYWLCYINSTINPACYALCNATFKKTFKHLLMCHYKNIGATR
# Type: cell membranes, CHO-K1, Membrane
# measurement_parameters: cho-k1
observed_property: IC50

Examples with answers:
Field IC50 (entry C=C(C)C1(O)OC(=O)C=C1OC (stereo not given) [PENICILLIC ACID] ) reads Not Active

Field IC50 (entry N#CC(C#N)=Cc1ccc(O)c(O)c1 [TYRPHOSTIN 23] ) reads Not Active

Field IC50 (entry Cc1c(C)c2c(c(C)c1O)CCC(C)(COc1ccc(CC3SC(=O)NC3=O)cc1)O2 (stereo not given) [TROGLITAZONE] ) reads Not Active

Field IC50 (entry CC(O)CO (stereo not given) [PROPYLENE GLYCOL] ) reads Not Active

Field IC50 (entry CNCCCN1c2ccccc2CCc2ccccc21 [DESIPRAMINE] ) reads Not Active

Field IC50 (entry C[C@](N)(Cc1ccc(O)c(O)c1)C(=O)O [METHYLDOPA] ) reads Not Active

Provide the reported IC50 of each entry below, same order.
1. CC(=O)[C@@]1(O)CC[C@H]2[C@@H]3C[C@H](C)C4=CC(=O)CC[C@]4(C)[C@H]3CC[C@@]21C
2. CC(C)(C)NC(=O)[C@@H]1C[C@@H]2CCCC[C@@H]2CN1C[C@@H](O)[C@H](Cc1ccccc1)NC(=O)[C@H](CC(N)=O)NC(=O)c1ccc2ccccc2n1

result:
1: Not Active; 2: Not Active

Provide the reported IC50 of each entry below, same order.
1. Cc1ccc(-c2cc(C(F)(F)F)nn2-c2ccc(S(N)(=O)=O)cc2)cc1 [CELECOXIB]
2. c1ccc([C@H]2CN3CCSC3=N2)cc1 [LEVAMISOLE]
3. CCOC(=O)N1CCC(=C2c3ccc(Cl)cc3CCc3cccnc32)CC1 [LORATADINE]
4. Cn1ccnc1S [METHIMAZOLE]
5. CCOC(=O)C1=C(COCCN)NC(C)=C(C(=O)OC)C1c1ccccc1Cl (stereo not given) [AMLODIPINE]
6. CCCOc1ccccc1-c1nc2nn[nH]c2c(=O)[nH]1 [ZAPRINAST]

result:
1. Not Active
2. Not Active
3. Not Active
4. Not Active
5. Not Active
6. Not Active

---

# protocol_notes: DRUGMATRIX: Sigma2 radioligand binding (ligand: [3H] Ifenprodil)
# Type: cell membranes, Rattus norvegicus, Wistar, Brain, Membrane
# measurement_parameters: Not Active = under 50% inhibition at 10 µM
observed_property: IC50

Field IC50 (entry CCCOc1ccccc1-c1nc2nn[nH]c2c(=O)[nH]1 ) reads Not Active

Field IC50 (entry C[C@H]1c2cccc(O)c2C(=O)C2=C(O)[C@]3(O)C(=O)C(C(N)=O)=C(O)[C@@H](N(C)C)[C@@H]3[C@@H](O)[C@@H]21.O ) reads Not Active

Field IC50 (entry CC1(C)O[C@@H]2C[C@H]3[C@@H]4CCC5=CC(=O)CC[C@]5(C)[C@@]4(F)[C@@H](O)C[C@]3(C)[C@]2(C(=O)CCl)O1 [HALCINONIDE] ) reads Not Active

Field IC50 (entry Cc1onc(-c2ccccc2Cl)c1C(=O)N[C@@H]1C(=O)N2[C@@H]1SC(C)(C)[C@@H]2C(=O)O ) reads Not Active

Field IC50 (entry COc1ccc(C[C@H]2NC[C@H](O)[C@H]2OC(C)=O)cc1 ) reads Not Active

Field IC50 (entry COc1cc2nc(N3CCN(C(=O)C4COc5ccccc5O4)CC3)nc(N)c2cc1OC (stereo unspecified) ) reads Not Active

Field IC50 (entry O=C1CC[C@@H](N2C(=O)c3ccccc3C2=O)C(=O)N1 ) reads Not Active

Field IC50 (entry CC[C@@H](CO)NC(=O)[C@@H]1C=C2c3cccc4[nH]cc(c34)C[C@H]2N(C)C1 ) reads Not Active

Field IC50 (entry Nc1nc2ccc(OC(F)(F)F)cc2s1 ) reads Not Active

Field IC50 (entry COc1c(C)c2c(c(O)c1C/C=C(\C)CCC(=O)O)C(=O)OC2 ) reads Not Active

Provide the reported IC50 of each entry below, same order.
1. OCCN(CCO)c1nc(N2CCCCC2)c2nc(N(CCO)CCO)nc(N3CCCCC3)c2n1
2. CC1Cc2ccccc2N1NC(=O)c1ccc(Cl)c(S(N)(=O)=O)c1 (stereo unspecified) [INDAPAMIDE]
3. Cc1ccc(/N=C/N(C)/C=N/c2ccc(C)cc2C)c(C)c1

result:
1: Not Active; 2: Not Active; 3: Not Active

Provide the reported IC50 of each entry below, same order.
1. CNCCCN1c2ccccc2CCc2ccccc21
2. C[C@H](CCC(=O)O)[C@H]1CC[C@H]2[C@@H]3[C@H](O)C[C@@H]4C[C@H](O)CC[C@]4(C)[C@H]3C[C@H](O)[C@]12C
3. CCCN1C[C@H](CSC)C[C@@H]2c3cccc4[nH]cc(c34)C[C@H]21 [PERGOLIDE]

result:
Not Active
Not Active
Not Active
